- Assay System: Coagulation factor XII (Homo sapiens)
- Sequence (P00748 whole entry): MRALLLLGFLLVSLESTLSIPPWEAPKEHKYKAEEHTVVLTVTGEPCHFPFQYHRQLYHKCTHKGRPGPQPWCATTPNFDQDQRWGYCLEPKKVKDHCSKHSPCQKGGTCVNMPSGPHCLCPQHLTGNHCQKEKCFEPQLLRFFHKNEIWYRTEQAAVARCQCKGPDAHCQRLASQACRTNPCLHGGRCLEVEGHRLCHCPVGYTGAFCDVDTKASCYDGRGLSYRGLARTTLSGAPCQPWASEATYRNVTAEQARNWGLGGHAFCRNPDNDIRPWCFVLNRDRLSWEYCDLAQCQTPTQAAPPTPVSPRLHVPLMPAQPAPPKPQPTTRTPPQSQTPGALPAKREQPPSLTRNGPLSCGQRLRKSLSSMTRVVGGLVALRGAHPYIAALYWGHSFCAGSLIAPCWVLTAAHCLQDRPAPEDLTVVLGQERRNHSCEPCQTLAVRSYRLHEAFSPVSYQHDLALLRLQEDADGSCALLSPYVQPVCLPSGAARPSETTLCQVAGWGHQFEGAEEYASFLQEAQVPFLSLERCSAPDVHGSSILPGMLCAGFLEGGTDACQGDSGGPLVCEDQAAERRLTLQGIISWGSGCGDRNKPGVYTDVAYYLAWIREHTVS
Assay Endpoint: IC50 (µM)
One number for each entry, in µM.

// known answers, use as guide
> print(dat)
                              line.notation  value.reported
1  O=C(Nc1ccc(Cl)cc1O)c1cc2cc(Cl)cc(Br)c2oc1=O               8
2  O=C(Nc1ccc(O)cc1)c1cc2cc(Cl)cc(Br)c2oc1=O              41

Next, consider the following molecule.
Req: Which value of IC50 has been reported for O=C(Nc1ccccc1)c1cc2cc(Cl)cc(Br)c2oc1=O in the records?
Resp: 16
